# protocol_details: In vitro inhibition of KB cell growth.
# Format: functional, Homo sapiens
# Activity per entry
Give your result in µg/mL as a bare value.

compound: CC(C)c1ccc(C(c2ccc(C(c3ccc(C(C)C)cc(=O)c3O)c3ccc(C(C)C)cc(=O)c3O)cc2)c2ccc(C(C)C)cc(=O)c2O)c(O)c(=O)c1
property_label: Activity
units_symbol: µg/mL
numeric_value: 100

compound: CC(C)c1ccc(C(c2ccc(OCc3ccccc3)cc2)c2ccc(C(C)C)cc(=O)c2O)c(O)c(=O)c1
property_label: Activity
units_symbol: µg/mL
numeric_value: 4.65

compound: CC(C)c1ccc(C(c2ccc(OCC(=O)[O-])cc2)c2ccc(C(C)C)cc(=O)c2O)c(O)c(=O)c1.[Na+]
property_label: Activity
units_symbol: µg/mL
numeric_value: 2.6

compound: COc1ccc(C(c2ccc(C(C)C)cc(=O)c2O)C(c2ccc(OC)cc2)c2ccc(C(C)C)cc(=O)c2O)cc1 (stereo not drawn)
property_label: Activity
units_symbol: µg/mL
numeric_value: 5.2

compound: CC(C)c1ccc(C(c2ccc(C(=O)O)cc2)c2ccc(C(C)C)cc(=O)c2O)c(O)c(=O)c1
property_label: Activity
units_symbol: µg/mL
numeric_value: 0.5

Prompt line: Tell me the measured Activity of "CC(C)c1ccc(C(c2ccc(C(C)C)cc(=O)c2O)c2cccc3ccccc23)c(O)c(=O)c1" , please.
Response line: 2.6

Prompt line: Tell me the measured Activity of "CC(C)c1ccc(C(c2ccc(-c3ccccc3)cc2)c2ccc(C(C)C)cc(=O)c2O)c(O)c(=O)c1" , please.
Response line: 2.5

Prompt line: Tell me the measured Activity of "CC(C)c1ccc(C(c2cccs2)c2ccc(C(C)C)cc(=O)c2O)c(O)c(=O)c1" , please.
Response line: 0.6

Prompt line: Tell me the measured Activity of "CC(C)c1ccc(C(c2ccc([N+](C)(C)C)cc2)c2ccc(C(C)C)cc(=O)c2O)c(O)c(=O)c1.[I-]" , please.
Response line: 2.5

Prompt line: Tell me the measured Activity of "COC(=O)c1ccc(C(c2ccc(C(C)C)cc(=O)c2O)c2ccc(C(C)C)cc(=O)c2O)cc1" , please.
Response line: 0.5

Prompt line: Tell me the measured Activity of "CC(C)c1ccc(C(c2ccc3c(c2)OCO3)c2ccc(C(C)C)cc(=O)c2O)c(O)c(=O)c1" , please.
Response line: 0.5
